- target or test system: human EGFR kinase domain (Homo sapiens (Human))
- Sequence (P00533 712-979): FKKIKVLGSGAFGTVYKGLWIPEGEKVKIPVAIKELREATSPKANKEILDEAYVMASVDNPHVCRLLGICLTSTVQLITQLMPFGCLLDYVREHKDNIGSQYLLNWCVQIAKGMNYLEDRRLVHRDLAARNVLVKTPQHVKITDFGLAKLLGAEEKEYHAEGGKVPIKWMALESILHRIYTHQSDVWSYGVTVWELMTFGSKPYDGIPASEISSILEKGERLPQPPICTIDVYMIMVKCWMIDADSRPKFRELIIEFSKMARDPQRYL
recorded endpoint: IC50 (µM)
Give the value in µM but do not write µM after it.

Example cases with answers are listed next.
N#CN1CCCC(n2nc(-c3ccc(Oc4ccc(Cl)cc4)cc3)c(C(N)=O)c2N)C1 (single isomer, unassigned) [Example 15]: 3.89
C=CC(=O)N1CCC[C@@H](n2nc(-c3ccc(Oc4ccc(Cl)cc4)cc3)c(C(N)=O)c2N)C1 [Example 130]: 0.0079
NC(=O)c1c(-c2ccc(Oc3cccc(C(F)(F)F)n3)cc2)nn([C@@H]2CCCN(C(=O)/C=C/CO)C2)c1N [Example 162]: 14.1
NC(=O)c1c(-c2ccc(Oc3ncc(Cl)cc3F)cc2)nn([C@@H]2CCCN(C(=O)/C=C/C(F)F)C2)c1N [Example 155]: 0.106

Shifting focus to the molecule that follows.
Input: Look up IC50 with human EGFR kinase domain (Homo sapiens (Human)) for this molecule: N#CN1CCCC(n2nc(-c3ccc(Oc4ccccc4)cc3)c(C(N)=O)c2N)C1 (single isomer, unassigned) [Example 2]
Output: 1.71

###

- target or test system: human full-length BTK Kinase (Homo sapiens (Human), UniProt Q06187)
- Sequence (Q06187 whole entry): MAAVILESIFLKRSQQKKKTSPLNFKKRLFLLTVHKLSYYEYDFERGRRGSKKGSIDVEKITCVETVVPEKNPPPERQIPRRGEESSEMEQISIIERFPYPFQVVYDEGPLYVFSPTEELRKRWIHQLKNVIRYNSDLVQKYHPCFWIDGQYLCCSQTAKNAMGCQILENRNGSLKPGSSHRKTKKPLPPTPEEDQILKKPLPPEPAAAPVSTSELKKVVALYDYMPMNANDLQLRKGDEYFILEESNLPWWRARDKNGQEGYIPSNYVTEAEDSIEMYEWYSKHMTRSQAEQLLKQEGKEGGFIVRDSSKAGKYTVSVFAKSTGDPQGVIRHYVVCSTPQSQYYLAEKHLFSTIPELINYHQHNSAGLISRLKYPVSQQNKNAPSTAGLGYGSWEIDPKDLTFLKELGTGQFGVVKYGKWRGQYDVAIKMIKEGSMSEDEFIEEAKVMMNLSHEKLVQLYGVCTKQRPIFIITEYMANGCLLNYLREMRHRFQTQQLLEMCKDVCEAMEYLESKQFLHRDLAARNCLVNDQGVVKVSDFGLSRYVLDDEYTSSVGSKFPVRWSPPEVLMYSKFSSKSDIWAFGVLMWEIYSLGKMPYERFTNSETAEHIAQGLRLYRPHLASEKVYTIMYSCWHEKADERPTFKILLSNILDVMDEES
pIC50: −log10 of the molar value.
# cutoff 8 applies to pIC50; >= gives true (1), < gives false (0)

N#CN1CCCC(n2nc(-c3ccc(Oc4cccc(Cl)c4F)cc3)c(C(N)=O)c2N)C1 (stereo not drawn): true (1)
N#CN1CCCC(n2nc(-c3cccc(Oc4ccccc4)c3)c(C(N)=O)c2N)C1 (single isomer, unassigned) [Example 91]: false (0)
N#CN1CCC[C@@H](n2nc(-c3ccc(Oc4cccc(C(F)(F)F)n4)cc3)c(C(N)=O)c2N)C1: true (1)
CC(C)c1ccccc1Oc1cccc(-c2nn(C3CCCN(C#N)C3)c(N)c2C(N)=O)c1 (stereo not drawn): false (0)
COC/C=C/C(=O)N1CCC[C@@H](n2nc(-c3ccc(Oc4ccc(F)cc4F)cc3)c(C(N)=O)c2N)C1: false (0)
N#CN1CCCC(n2nc(-c3ccc(C(=O)c4ccccc4)cc3)c(C(N)=O)c2N)C1 (stereo not drawn): true (1)

Input: Entry Cc1ccc(Oc2ccc(-c3nn(C4CCCN(C#N)C4)c(N)c3C(N)=O)cc2)c(F)c1 (stereo not drawn) : is its pIC50 no less than 8?
Output: true (1)

Input: Entry "NC(=O)c1c(-c2ccc(Oc3ccc(Cl)cc3)cc2)nn([C@@H]2CCCN(C(=O)/C=C/CF)C2)c1N" : is its pIC50 no less than 8?
Output: true (1)

Input: Entry "C=C(F)C(=O)N1CCC[C@@H](n2nc(-c3ccc(Oc4cccc(C(F)(F)F)n4)cc3)c(C(N)=O)c2N)C1" : is its pIC50 no less than 8?
Output: true (1)

###

Measured pIC50 accompanies every entry in the list below.
- System: Human B cells
- assay protocol: Human Primary B Cell Proliferation Assay (3H-thymidine incorporation, anti-human IgM stimulated)
- Format: cell-based
- setup conditions: B-cell, purified human B cells, 50 μg/mL anti-human IgM F(ab')2, 72 hours
Answer as the number alone; pIC50 is minus log10 of concentration in mol/L.

C=CC(=O)N1CCC[C@@H](n2nc(-c3ccc(Oc4ccc(Cl)cc4)cc3)c(C(N)=O)c2N)C1: 9.82
N#CN1CCC[C@@H](n2nc(-c3ccc(Oc4cccc(C(F)(F)F)n4)cc3)c(C(N)=O)c2N)C1: 7.83
N#CN1CCC[C@@H](n2nc(-c3ccc(Oc4ncc(Cl)cc4F)cc3)c(C(N)=O)c2N)C1: 7.53
C=CC(=O)N1CCC[C@@H](n2nc(-c3ccc(Oc4cccc(C(F)(F)F)n4)cc3)c(C(N)=O)c2N)C1: 8.52
N#CN1CCCC(n2nc(-c3ccc(Oc4ccccc4)cc3)c(C(N)=O)c2N)C1 (single isomer, unassigned): 9.30

Shifting focus to the molecule that follows.
Input: Look up pIC50 with Human B cells for this molecule: "NC(=O)c1c(-c2ccc(Oc3ncc(Cl)cc3F)cc2)nn([C@@H]2CCCN(C(=O)/C=C/C(F)F)C2)c1N"
Output: 8.70
